molecular target: FGFR4 (Homo sapiens (Human), UniProt P22455); assay: FGFR Enzymatic Assay (FRET peptide phosphorylation), FGFR4; assay type: biochemical; settings: ratio of IC50 data showing FGFR4 selectivity; Table 4, pre-incubated for 5 to 10 minutes
Sequence (P22455 22-802): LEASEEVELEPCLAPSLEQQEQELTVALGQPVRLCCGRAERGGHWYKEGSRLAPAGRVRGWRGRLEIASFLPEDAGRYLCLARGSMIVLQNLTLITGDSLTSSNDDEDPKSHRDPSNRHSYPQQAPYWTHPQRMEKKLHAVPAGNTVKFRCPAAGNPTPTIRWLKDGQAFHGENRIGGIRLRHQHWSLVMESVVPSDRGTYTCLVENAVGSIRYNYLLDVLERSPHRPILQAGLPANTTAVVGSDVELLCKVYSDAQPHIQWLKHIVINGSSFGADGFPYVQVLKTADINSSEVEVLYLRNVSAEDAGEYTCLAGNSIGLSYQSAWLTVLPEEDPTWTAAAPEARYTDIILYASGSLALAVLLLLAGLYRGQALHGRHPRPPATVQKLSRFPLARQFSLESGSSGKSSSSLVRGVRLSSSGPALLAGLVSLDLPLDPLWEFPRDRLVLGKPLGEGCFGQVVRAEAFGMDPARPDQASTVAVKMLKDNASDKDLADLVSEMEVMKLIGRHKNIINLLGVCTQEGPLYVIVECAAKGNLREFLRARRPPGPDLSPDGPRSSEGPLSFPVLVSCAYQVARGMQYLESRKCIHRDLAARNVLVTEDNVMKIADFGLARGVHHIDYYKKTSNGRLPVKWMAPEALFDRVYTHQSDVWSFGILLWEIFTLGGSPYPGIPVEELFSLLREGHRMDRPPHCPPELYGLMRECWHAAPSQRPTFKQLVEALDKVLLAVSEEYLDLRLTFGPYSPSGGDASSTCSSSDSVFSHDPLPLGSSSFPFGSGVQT
Let's look at some compounds and their measured FGFR1/FGFR4.

COMPOUND SMILES	FGFR1/FGFR4
COc1cc(OC)c(F)c(N2Cc3cnc(-c4cncc(Cl)c4)cc3C3(CC3)C2=O)c1F	>50
COc1cc(OC)c(F)c(N2Cc3cnc(-c4cc(N)cnc4C)cc3C3(CC3)C2=O)c1F	>25
COc1cc(OC)c(F)c(N2Cc3cnc(-c4cncc(C#N)c4)cc3C3(CC3)C2=O)c1F	>50
COc1cc(OC)c(F)c(N2Cc3cnc(-c4cncc(F)c4)cc3C3(CC3)C2=O)c1F	>10
COc1cc(OC)c(F)c(N2Cc3cnc(-c4cncc(CN5CCOCC5)c4)cc3C3(CC3)C2=O)c1F	>25
COc1cc(OC)c(F)c(N2Cc3cnc(-c4cncc(N)c4)cc3C3(CC3)C2=O)c1F	>10
COc1cc(OC)c(F)c(N2Cc3cnc(-c4cc(N)ccc4C#N)cc3C3(CC3)C2=O)c1F	>25
COc1cc(OC)c(F)c(N2Cc3cnc(-c4cncc(S(=O)(=O)N5CCOCC5)c4)cc3C3(CC3)C2=O)c1F	>25
COc1cc(OC)c(F)c(N2Cc3cnc(-c4cc(N)ccc4C)cc3C3(CC3)C2=O)c1F	>25
COc1cc(OC)c(F)c(N2Cc3cnc(-c4cncc(-n5ccnc5)c4)cc3C3(CC3)C2=O)c1F	>50
COc1cc(OC)c(F)c(N2Cc3cnc(-c4cncc(C(=O)N5CCOCC5)c4)cc3C3(CC3)C2=O)c1F	>50
COc1cc(OC)c(F)c(N2Cc3cnc(-c4cncc(N5CCOCC5)c4)cc3C3(CC3)C2=O)c1F	>100
COc1cc(OC)c(F)c(N2Cc3cnc(-c4cc(N)c(F)cc4C)cc3C3(CC3)C2=O)c1F	>10
COc1cc(OC)c(F)c(N2Cc3cnc(-c4cncc(NS(C)(=O)=O)c4)cc3C3(CC3)C2=O)c1F	>50
COc1cncc(-c2cc3c(cn2)CN(c2c(F)c(OC)cc(OC)c2F)C(=O)C32CC2)c1	>25
COc1cc(OC)c(F)c(N2Cc3cnc(-c4cccnc4)cc3C3(CC3)C2=O)c1F	>5

###

molecular target: FGFR4 (Homo sapiens (Human), UniProt P22455); test: FGFR Enzymatic Assay (FRET peptide phosphorylation), FGFR4; format: biochemical; details: IC50 ratio showing FGFR4 selectivity; Table 2, pre-incubated for 4 hours
Let's look at some compounds and their measured FGFR2/FGFR4.
MEASUREMENT KIND: FGFR2/FGFR4

COMPOUND SMILES	ASSAY RESULT
COc1cc(OC)c(F)c(N2Cc3cnc(-c4nn(C)cc4C#N)cc3C3(CC3)C2=O)c1F	>25
COc1cc(OC)c(F)c(N2Cc3cnc(-c4cccnc4)cc3C3(CC3)C2=O)c1F	>1
COc1cncc(-c2cc3c(cn2)CN(c2c(F)c(OC)cc(OC)c2F)C(=O)C32CC2)c1	>25
COc1cc(OC)c(F)c(N2Cc3cnc(-c4cc(N)ccc4C#N)cc3C3(CC3)C2=O)c1F	>25
COc1cc(OC)c(F)c(N2Cc3cnc(-c4cncc(S(=O)(=O)N5CCOCC5)c4)cc3C3(CC3)C2=O)c1F	>10
COc1cc(OC)c(F)c(N2Cc3cnc(-c4nn(CC5CCOCC5)cc4C#N)cc3C3(CC3)C2=O)c1F	>100
COc1cc(OC)c(F)c(N2Cc3cnc(-c4cc(N)cnc4C)cc3C3(CC3)C2=O)c1F	>25
COc1cc(OC)c(F)c(N2Cc3cnc(-c4cncc(NS(C)(=O)=O)c4)cc3C3(CC3)C2=O)c1F	>25
COc1cc(OC)c(F)c(N2Cc3cnc(-c4cncc(C(=O)N5CCOCC5)c4)cc3C3(CC3)C2=O)c1F	>25
COc1cc(OC)c(F)c(N2Cc3cnc(-c4cc(N)c(F)cc4C)cc3C3(CC3)C2=O)c1F	>10
COc1cc(OC)c(F)c(N2Cc3cnc(-c4[nH]ncc4C#N)cc3C3(CC3)C2=O)c1F	>10
COc1cc(OC)c(F)c(N2Cc3cnc(-c4cncc(C#N)c4)cc3C3(CC3)C2=O)c1F	>10
COc1cc(OC)c(F)c(N2Cc3cnc(-c4cncc(N5CCOCC5)c4)cc3C3(CC3)C2=O)c1F	>100
COc1cc(OC)c(F)c(N2Cc3cnc(-c4cncc(Cl)c4)cc3C3(CC3)C2=O)c1F	>25
COc1cc(OC)c(F)c(N2Cc3cnc(-c4cncc(CN5CCOCC5)c4)cc3C3(CC3)C2=O)c1F	>25
COc1cc(OC)c(F)c(N2Cc3cnc(-c4cncc(-n5ccnc5)c4)cc3C3(CC3)C2=O)c1F	>25
COc1cc(OC)c(F)c(N2Cc3cnc(-c4cc(N)ccc4C)cc3C3(CC3)C2=O)c1F	>25
COc1cc(OC)c(F)c(N2Cc3cnc(-c4cncc(N)c4)cc3C3(CC3)C2=O)c1F	>10
COc1cc(OC)c(F)c(N2Cc3cnc(-c4nn(CC#N)cc4C#N)cc3C3(CC3)C2=O)c1F	>10
COc1cc(OC)c(F)c(N2Cc3cnc(-c4cncc(F)c4)cc3C3(CC3)C2=O)c1F	>5

Origin of measurements: patent US11173162B2
